// data source = PubChem BioAssay (EPA / NIEHS)

Read-out: CYP3A5 (gene 1577)
Protocol details: LTEA_HepaRG_CYP3A5: Life Technologies and Expression Analysis (LTEA) Assay for CYP3A5 using HepaRG (AID 2283493)
Condition description: mRNA level, 48 h; actives raise or lower the signal
Activity calls are given as the source filed them. The calls were made as follows: active = hit-call score of the fitted dose curve at least 0.9, where 1 is the maximum; inactive = score below 0.9.
Bench note: report the call from active, inactive

Challenge: Record lookup: outcome of this test for "Cc1ccccc1Cl" ?
Response given: inactive

Challenge: For this compound, state the assay outcome: "CCCCCCCCCCCCCO"
Response given: inactive

Challenge: Tell me the recorded outcome of this test for "Cc1cccc([N+](=O)[O-])c1C" .
Response given: inactive

Challenge: Just curious, what result did "O=[N+]([O-])C(CO)(CO)CO" get here?
Response given: inactive

Challenge: Returns: the outcome recorded for "COCCOCCOC" in this assay.
Response given: inactive

New cases:
Challenge: GET /call?item= "OC[C@@H](O)[C@@H](O)[C@H](O)[C@H](O)CO" returns the recorded outcome of this test.
Response given: inactive

Challenge: Could you kindly confirm the outcome this assay logged for "Cc1ccc(Cl)cc1" ?
Response given: inactive
